# TESTED TARGET: T1, human CD3 E&D complex protein (Sino Biological Inc., CT026H0323H) (human, UniProt P07766 23-126; P04234 22-105)
# T1 construct: bought heterodimer; also called human CD3 protein (CT026H0323H)
# T1 sequence (P07766 23-126, chain 1 of 2): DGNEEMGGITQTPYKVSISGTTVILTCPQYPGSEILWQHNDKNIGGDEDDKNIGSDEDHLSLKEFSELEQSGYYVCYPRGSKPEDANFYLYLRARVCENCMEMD
# T1 sequence (P04234 22-105, chain 2 of 2): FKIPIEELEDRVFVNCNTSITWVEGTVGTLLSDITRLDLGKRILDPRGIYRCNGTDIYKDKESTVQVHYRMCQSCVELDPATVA
# RUN DESCRIPTION: BLI, antibody on sensor
pKd: −log10 of the molar value.
Consider the following binders and their measured pKd readings.

BINDER: hzsp34.108 (antibody, human IgG1, lambda, L234A L235A, V domains shown, CDR mutant of hzsp34.24; IgG1 L234A L235A, lambda) VH: EVQLVESGGGLVQPGGSLKLSCAASGFTFNTYAMNWVRQASGKGLEWVGRIRSKYNNYATYYADSVKDRFTISRDDSKSTLYLQMNSLKTEDTAVYYCARHGNFGQSYVSWFAYWGQGTTVTVSS VL: QAVVTQEPSLTVSPGGTVTLTCRSSTGAVTTSNYANWVQQKPGQAPRGLIGGTNKRAPGVPARFSGSLLGDKAALTLLGAQPEDEAEYYCALWASNLWVFGQGTKLTVLG
pKd: 9.02

BINDER: hzsp34.112 (antibody, human IgG1, lambda, L234A L235A, V domains shown, CDR mutant of hzsp34.24; IgG1 L234A L235A, lambda) VH: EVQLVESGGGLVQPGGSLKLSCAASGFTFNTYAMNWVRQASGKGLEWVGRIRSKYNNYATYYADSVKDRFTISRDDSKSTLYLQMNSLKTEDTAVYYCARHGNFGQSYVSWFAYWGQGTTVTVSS VL: QAVVTQEPSLTVSPGGTVTLTCRSSTGAVTTRGYANWVQQKPGQAPRGLIGGTNKRAPGVPARFSGSLLGDKAALTLLGAQPEDEAEYYCALWYSNLWVFGQGTKLTVLG
pKd: 9.14

BINDER: hzsp34.106 (antibody, human IgG1, lambda, L234A L235A, V domains shown, CDR mutant of hzsp34.24; IgG1 L234A L235A, lambda) VH: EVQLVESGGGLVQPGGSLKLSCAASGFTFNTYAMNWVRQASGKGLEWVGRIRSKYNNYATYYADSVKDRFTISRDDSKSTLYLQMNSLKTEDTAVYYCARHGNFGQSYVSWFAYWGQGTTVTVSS VL: QAVVTQEPSLTVSPGGTVTLTCRSSTGAVTTSGYANWVQQKPGQAPRGLIGGTNKRAPGVPARFSGSLLGDKAALTLLGAQPEDEAEYYCALWYSNLWVFGQGTKLTVLG
pKd: 8.81

BINDER: hzsp34.92 (antibody, human IgG1, lambda, L234A L235A, V domains shown, CDR mutant of hzsp34.24; IgG1 L234A L235A, lambda) VH: EVQLVESGGGLVQPGGSLKLSCAASGFTFNTYAMNWVRQASGKGLEWVGRIRSKYNNYATYYADSVKDRFTISRDDSKSTLYLQMNSLKTEDTAVYYCARHGNFGQRYVSWFAYWGQGTTVTVSS VL: QAVVTQEPSLTVSPGGTVTLTCRSSTGAVTTSNYANWVQQKPGQAPRGLIGGTNKRAPGVPARFSGSLLGDKAALTLLGAQPEDEAEYYCALWYSNLWVFGQGTKLTVLG
pKd: 9.11

BINDER: hzsp34.107 (antibody, human IgG1, lambda, L234A L235A, V domains shown, CDR mutant of hzsp34.24; IgG1 L234A L235A, lambda) VH: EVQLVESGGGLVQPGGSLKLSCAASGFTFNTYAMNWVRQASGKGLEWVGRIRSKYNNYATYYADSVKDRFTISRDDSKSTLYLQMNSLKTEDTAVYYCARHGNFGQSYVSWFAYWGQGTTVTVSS VL: QAVVTQEPSLTVSPGGTVTLTCRSSTGAVTTSNYANWVQQKPGQAPRGLIGGTNKRAPGVPARFSGSLLGDKAALTLLGAQPEDEAEYYCALAYSNLWVFGQGTKLTVLG
pKd: 8.07
